Experimental target: JAK2 (Homo sapiens)
Construct: endogenous in cells
Sequence (O60674 whole entry): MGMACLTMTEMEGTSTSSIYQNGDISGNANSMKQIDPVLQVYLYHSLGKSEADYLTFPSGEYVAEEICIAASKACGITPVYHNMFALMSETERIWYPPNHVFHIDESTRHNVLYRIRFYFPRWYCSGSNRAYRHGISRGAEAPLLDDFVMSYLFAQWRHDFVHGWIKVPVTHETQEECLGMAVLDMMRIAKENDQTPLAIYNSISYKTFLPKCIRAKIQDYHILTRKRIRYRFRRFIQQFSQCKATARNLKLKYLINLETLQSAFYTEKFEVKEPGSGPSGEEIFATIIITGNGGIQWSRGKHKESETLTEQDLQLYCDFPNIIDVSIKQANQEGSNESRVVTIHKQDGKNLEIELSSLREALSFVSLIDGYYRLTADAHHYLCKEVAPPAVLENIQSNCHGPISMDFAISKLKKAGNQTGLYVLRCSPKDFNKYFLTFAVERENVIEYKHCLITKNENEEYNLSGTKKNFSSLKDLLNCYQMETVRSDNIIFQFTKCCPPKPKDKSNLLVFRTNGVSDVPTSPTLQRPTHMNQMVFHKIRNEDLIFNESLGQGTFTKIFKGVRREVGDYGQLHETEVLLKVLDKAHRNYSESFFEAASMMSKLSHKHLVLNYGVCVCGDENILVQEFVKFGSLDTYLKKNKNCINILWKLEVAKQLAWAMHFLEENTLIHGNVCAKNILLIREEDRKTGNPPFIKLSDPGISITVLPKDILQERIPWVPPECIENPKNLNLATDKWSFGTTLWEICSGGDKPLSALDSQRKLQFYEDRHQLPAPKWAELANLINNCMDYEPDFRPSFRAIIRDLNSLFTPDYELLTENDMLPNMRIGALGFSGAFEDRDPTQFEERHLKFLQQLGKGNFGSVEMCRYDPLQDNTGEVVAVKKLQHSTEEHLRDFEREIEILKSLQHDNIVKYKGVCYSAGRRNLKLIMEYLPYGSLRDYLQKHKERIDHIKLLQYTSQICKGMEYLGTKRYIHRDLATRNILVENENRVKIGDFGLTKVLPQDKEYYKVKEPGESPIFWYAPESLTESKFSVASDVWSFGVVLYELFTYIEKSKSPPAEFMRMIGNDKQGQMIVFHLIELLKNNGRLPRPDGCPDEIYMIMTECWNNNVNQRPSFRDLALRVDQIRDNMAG
Protocol notes: Kinobeads assay, JAK2
Experimental setup: mixed Molt4/Ramos cell lysate, dot blot detection
Where a name gives a salt, the structure may show the parent alone.
Item-by-item account of IC50

Molecule: CS(=O)(=O)Nc1ccccc1Cn1ncc2cnc(Nc3cnn(CC(F)F)c3)nc21 [Example 131, hydrochloride]
IC50: 100 to 1000 nM
//
Molecule: COCCn1cc(Nc2ncc3cnn(Cc4ccccc4C#N)c3n2)c(C)n1
IC50: ≥ 10000 nM
//
Molecule: Cn1cc(Nc2ncc3cnn(-c4ccc(Cl)cc4)c3n2)cn1
IC50: ≥ 10000 nM
//
Molecule: Cc1c(F)cccc1Cn1ncc2cnc(Nc3cnn(C)c3)nc21
IC50: 1000 to 10000 nM
//
Molecule: CC(C)n1ccc(Nc2ncc3cnn(Cc4ccccc4C#N)c3n2)n1
IC50: ≥ 10000 nM

Data request: May I ask what IC50 has been recorded for `Cn1cc(Nc2ncc3cnn(Cc4c(F)ccc(F)c4F)c3n2)cn1` ?
Data returned: 100 to 1000 nM

Data request: # query: IC50 of entry `CC(C)S(=O)(=O)Nc1cccc(Cn2ncc3cnc(Nc4cnn(C)c4)nc32)c1`
Data returned: ≥ 10000 nM

Data request: Which IC50 reading was recorded for the molecule CC(c1ccccc1F)n1ncc2cnc(Nc3cnn(C)c3)nc21 (stereo not drawn) ?
Data returned: ≥ 10000 nM

Data request: Which IC50 value belongs to `NS(=O)(=O)c1ccc(-n2ncc3cnc(Nc4cnn(CCO)c4)nc32)cc1` ?
Data returned: 100 to 1000 nM
